- TGT: ATGL (Mus musculus, UniProt Q8BJ56)
- Construct: The lipid-free infranatant (cytosolic fraction) was collected and, used for triacyl-glycerol (TG) hydrolase assays; from tissue; host or cells: mouse white adipose tissue, cytosolic fraction (100,000 g infranatant)
- Sequence (Q8BJ56 1-486): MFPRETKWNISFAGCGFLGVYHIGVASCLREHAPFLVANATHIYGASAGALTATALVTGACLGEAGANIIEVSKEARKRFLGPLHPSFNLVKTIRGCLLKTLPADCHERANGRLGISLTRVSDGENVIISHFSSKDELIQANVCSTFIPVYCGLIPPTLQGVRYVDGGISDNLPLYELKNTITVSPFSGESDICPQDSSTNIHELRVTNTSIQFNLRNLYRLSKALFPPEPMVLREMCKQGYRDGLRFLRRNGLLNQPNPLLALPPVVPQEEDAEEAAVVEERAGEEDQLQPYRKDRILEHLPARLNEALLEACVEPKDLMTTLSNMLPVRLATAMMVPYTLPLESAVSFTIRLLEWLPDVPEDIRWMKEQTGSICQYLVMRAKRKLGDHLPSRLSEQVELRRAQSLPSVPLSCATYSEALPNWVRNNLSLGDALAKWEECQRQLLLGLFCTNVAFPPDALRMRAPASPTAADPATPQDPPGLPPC
- ASSAY NAME: Lipase assay (triglyceride hydrolase assay) with candidate inhibitors
- Assay type: biochemical
- COND: versus control (DMSO), FIG. 9
MEASURED QUANTITY: inhibition of ATGL (ATGL activity, % control)

Asked: Report measured inhibition of ATGL (ATGL activity, % control); entry is COC(=O)C(O)(c1cc(C)c(O)c(C)c1)C(F)(F)F (stereo not shown) [Compound 3]
Given back: inhibit ATGL

Asked: Indicate the recorded inhibition of ATGL (ATGL activity, % control) value for this molecule: CN(C)/N=C/c1ccccc1OC(=O)c1cccnc1 [Compound 7]
Given back: inhibit ATGL

Asked: Tell me its inhibition of ATGL (ATGL activity, % control) given CCOC(=O)c1nn(-c2ccc(OCC)cc2)cc1O [Compound 9] as the entry.
Given back: inhibit ATGL
